Experiment summary: qHTS assay to identify small molecule antagonists of the estrogen receptor alpha (ER-alpha) signaling pathway using the BG1 cell line - cell viability counter screen (AID 743081);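 further: compound given together with 17beta-estradiol as the ER stimulus; nearly all actives have a fitted effect of over 45% in size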
Measurement context: BG1Luc4E2 viability, CellTiter-Fluor, 22 h; series mostly up to 70.3 µM
Records with an inconclusive call do not appear. Calls of active or inactive are those of the source. The call rests on the fitted dose curve; in most records, active means well fitted cell-killing curve with a large enough effect in the repeat runs; inconclusive means weak or mixed curves, or effect the other way; inactive means flat fitted curve, though single readings scatter.
The reply should name one outcome from y for active, n for inactive

Molecule | Answer label
Nc1ccc(S(=O)(=O)O)c(N)c1 | n
NC(=O)N(O)[C@@H]1C=C[C@H](Oc2cccc(Oc3ccc(F)cc3)c2)C1 | n
CCn1cc(C(=O)O)c(=O)c2cc(F)c(N3CCNCC3)nc21 | n
CC(C)CCCC(=O)O | n

Which result was noted for this molecule in the test: CNC(=O)N(c1ccccc1)c1ccccc1 n

Cool, now CCn1nc(C)c2c1C(=O)NCC(c1ccc(O)cc1)=N2 n

Cool, now Cc1ccc(S(=O)(=O)NC2CCCCC2)cc1 n

Cool, now CCOC(=O)c1ccccc1OC n

Cool, now Cc1cc(C(=C2C=CC(=Nc3ccc(S(=O)(=O)O)cc3S(=O)(=O)O)C=C2)c2ccc(Nc3ccc(S(=O)(=O)O)cc3)cc2)ccc1N n

Cool, now CCC(Cc1ccccc1)(C(=O)c1ccc(N2CCOCC2)cc1)N(C)C (stereo unspecified) n

Cool, now COc1ccccc1N=Nc1c(S(=O)(=O)O)cc2cc(S(=O)(=O)O)cc(NC(C)=O)c2c1O y

---

Tested on: Nuclear receptor subfamily 1 group I member 2 (Homo sapiens)
Experiment summary: Human pregnane X receptor (PXR) small molecule agonists, qHTS assay (AID 1346982); further: nearly all actives have a fitted effect of over 35% in size; on activation: on the % scale 0 is the no-effect control and ±100 the full control effect
Measurement context: PXR-Luc HepG2, CYP3A4 luciferase reporter, 24 h; series mostly up to 92.4 µM
Records with an inconclusive call do not appear. Calls of active or inactive are those of the source. Calls come from the whole dose curve; as a rule, active = well fitted activation curve with a large enough effect in the repeat runs; inconclusive = weak or mixed curves; inactive = no such curve, though single readings can be large or run the other way.
The reply should name one outcome from 1 = active, -1 = inactive

Solved entries:
Compound | Answer label
COc1cc2c(N3CCN(C(=O)Nc4ccc(OC(C)C)cc4)CC3)ncnc2cc1OCCCN1CCCCC1 | -1
CCOC(=O)OCC | -1
CC1=C(/C=C/C(C)=C\C=C\C(C)=C\C(=O)O)C(C)(C)CCC1 | 1
O=C1NCCN1 | -1

Now turn to the next compound.
Which result was noted for this compound in the test: NC(=O)N(O)[C@@H]1C=C[C@H](Oc2cccc(Oc3ccc(F)cc3)c2)C1 1

---

Experiment summary: qHTS assay to identify small molecule antagonists of the estrogen related receptor (ERR) signaling pathway from Tox21 library (AID 1224848); further: nearly all actives have a fitted effect of over 50% in size
Measurement context: ERR reporter cell line, luciferase antagonist mode, 18 h; series mostly up to 92.4 µM
From the text: U.S. Tox21 Program National Center for Advancing Translational Sciences [NCATS] NIH Chemical Genomics Center [NCGC] U.S. Environmental Protection Agency [EPA] National Institutes of Environmental Health Sciences [NIEHS] National Toxicology Program [NTP] U.S. Food and Drug Administration [FDA] Tox21 Assay Overview: Estrogen related receptors (ERRs), the first orphan nuclear receptors discovered, play an important role in the control of cellular energy metabolism. […]
Records with an inconclusive call do not appear. Active and inactive are the calls of the source. Calls follow the shape of the dose curve; as a rule, active = well fitted inhibition curve with a large enough effect in the repeat runs; inconclusive = weak or mixed curves; inactive = no such curve, though single readings can be large or run the other way.
The reply should name one outcome from yes for active, no for inactive

Which result was noted for this compound in the test: CC(=O)OCC(=O)[C@H]1CC[C@H]2[C@@H]3CCC4=CC(=O)CC[C@]4(C)[C@H]3CC[C@]12C yes

Cool, now Cc1occc1C(=O)Nc1ccc(C(=O)N2CCC(F)(F)/C(=C\C(=O)N3CCC(N4CCCCC4)CC3)c3ccccc32)cc1 no

Cool, now Cc1cc(S(=O)(=O)O)ccc1N=Nc1c(O)ccc2ccccc12 no

Cool, now COc1ccc(CCC(=O)c2c(O)cc(O[C@@H]3O[C@H](CO)[C@@H](O)[C@H](O)[C@H]3O[C@@H]3O[C@@H](C)[C@H](O)[C@@H](O)[C@H]3O)cc2O)cc1O no

---

Experiment summary: qHTS assay to identify small molecule antagonists of the sonic hedgehog signaling (Shh) pathway (AID 1259369); further: nearly all actives have a fitted effect of over 45% in size
Measurement context: NIH/3T3 Gli1-Luc reporter, Shh antagonist, luminescence 24 h; series mostly up to 92.4 µM
Results filed as inconclusive are left out. Active and inactive are the calls of the source. Calls come from the whole dose curve.
The reply should name one outcome from label 1 = active, label 0 = inactive

Solved entries:
Compound | Answer label
CC(=O)Nc1ccc(N)cc1 | label 0
Cc1ccccc1N1C(=O)c2cc(S(N)(=O)=O)c(Cl)cc2NC1C (stereo unspecified) | label 0
Cc1cc(O)c2c(O)c3c(O)cccc3cc2c1 | label 0
CN(C(=O)C(Cl)Cl)c1ccc(OC(=O)c2ccco2)cc1 | label 0
COCCOC | label 1

Which result was noted for this compound in the test: COc1cc2[nH]c(=O)[nH]c(=O)c2cc1OC label 0

Cool, now O=C(N/N=C/c1ccc([N+](=O)[O-])o1)c1ccc(O)cc1 label 1

Cool, now C=CC(=C)CCCC(C)(C)OC(C)=O label 0

Cool, now CN1Cc2cc(C(=O)N3CCC(C4CCNCC4)CC3)ccc2N[C@@H](CC(=O)O)C1=O label 0

Cool, now CC(=O)N(c1onc(C)c1C)S(=O)(=O)c1ccc(N)cc1 label 0

---

Experiment summary: A CellTox Green Cytotoxicity Assay to monitor cytotoxicity in HepG2 cells - 40 hour (AID 1224879); further: on the % scale 0 is the no-effect control and ±100 the full control effect; nearly all actives have a fitted effect of over 40% in size
Measurement context: CellTox Green fluorescence; series mostly up to 76.8 µM
Inconclusive results are not listed. Activity calls are given as the source filed them. The call rests on the fitted dose curve; in most records, active means well fitted activation curve with a large enough effect in the repeat runs; inconclusive means weak or mixed curves; inactive means flat fitted curve, though single readings scatter.
Measure name: cytotoxicity increase

Input smiles | cytotoxicity increase
CN1CCN(c2c(F)cc3c(=O)c(C(=O)O)cn4c3c2OCN4C)CC1 | -7.78% [at 15.8 µM] (inactive)
CCCC(=O)O[C@]1(C(=O)COC(=O)CC)CC[C@H]2[C@@H]3CCC4=CC(=O)CC[C@]4(C)[C@H]3[C@@H](O)C[C@@]21C | -7.71% [at 15.8 µM] (inactive)

Query: cytotoxicity increase; subject: CCCCCCCCCCCCCCCCBr -7.84% [at 15.8 µM] (inactive)

Cool, now C=CCCCCCCCCCCCCCCCC -20.6% [at 6.97 µM] (inactive)

---

Experiment summary: qHTS assay to test for compound auto fluorescence at 535 nm (green) in HEK293 cells (AID 720680); further: on the % scale 0 is the no-effect control and ±100 the full control effect
Measurement context: green autofluorescence 485/535 nm; series mostly up to 91.3 µM
Active and inactive are the calls of the source. Calls follow the shape of the dose curve; as a rule, active = well fitted curve in the direction sought with a large enough effect in the repeat runs; inconclusive = weak or mixed curves; inactive = flat fitted curve, though single readings scatter.
Measure name: fluorescence, % of fluorescein

Some entries whose results are on file:
Compound | fluorescence, % of fluorescein
O=C(CCCCCCCCC#CI)Oc1ccccc1 | inactive
OCCSc1ccccc1 | inactive
CCC(C(=O)OCCN(CC)CC)c1ccccc1 (stereo not drawn) | inactive
NC(=O)N(O)[C@@H]1COc2cc(OCc3ccccc3)ccc21 | inactive
CC1=NN(c2ccc(C(=O)O)cc2)C(=O)C1 | inactive

Query: fluorescence, % of fluorescein; subject: CC1(C)C2=CCCC(C)(C)[C@]23CC[C@H]1C3 inactive

Cool, now CNC(=S)NC inactive

Cool, now CCCCC(CC)CNCC(CC)CCCC (stereo not drawn) inactive

---

Tested on: Cytochrome P450 3A4 (Homo sapiens) (UniProt P08684)
Sequence (P08684 whole entry, looked up): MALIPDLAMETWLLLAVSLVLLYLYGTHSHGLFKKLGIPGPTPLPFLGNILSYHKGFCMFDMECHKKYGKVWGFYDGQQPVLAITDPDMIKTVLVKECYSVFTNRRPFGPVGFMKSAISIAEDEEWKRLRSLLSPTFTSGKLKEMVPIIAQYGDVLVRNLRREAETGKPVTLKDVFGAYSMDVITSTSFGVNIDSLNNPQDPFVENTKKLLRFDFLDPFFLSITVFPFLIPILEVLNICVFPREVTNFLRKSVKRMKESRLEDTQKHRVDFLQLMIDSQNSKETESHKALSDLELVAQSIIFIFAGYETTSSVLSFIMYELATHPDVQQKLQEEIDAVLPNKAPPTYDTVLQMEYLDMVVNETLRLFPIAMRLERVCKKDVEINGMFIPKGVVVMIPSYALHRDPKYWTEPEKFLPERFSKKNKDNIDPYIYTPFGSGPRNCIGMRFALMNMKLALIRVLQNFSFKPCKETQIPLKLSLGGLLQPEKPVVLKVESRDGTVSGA
Experiment summary: Cytochrome P450 Family 3 Subfamily A Member 4 (CYP3A4) small molecule antagonists: luciferase reporter qHTS assay (AID 1671201); further: nearly all actives have a fitted effect of over 50% in size
Measurement context: P450-Glo CYP3A4 enzyme, luciferin luminescence, 1 h; series mostly up to 115 µM
Results filed as inconclusive are left out. The source made the active and inactive calls. The call rests on the fitted dose curve; in most records, active means well fitted inhibition curve with a large enough effect in the repeat runs; inconclusive means weak or mixed curves; inactive means no such curve, though single readings can be large or run the other way.
The reply should name one outcome from active, inactive

Solved entries:
Molecule | Answer label
CCCCCCCCCOC(C)=O | inactive
CCn1cc(C(=O)O)c(=O)c2cc(F)c(N3CCNCC3)nc21 | inactive
CO/N=C1\CN(c2nc3c(cc2F)c(=O)c(C(=O)O)cn3C2CC2)CC1CN (stereo not drawn) | inactive
CCCCCCOC(=O)CCCCCCCC(=O)OCCCCCC | inactive
O=C(/C=C/c1ccccc1)OCCCc1ccccc1 | inactive
NC(=O)N(O)[C@@H]1C=C[C@H](Oc2cccc(Oc3ccc(F)cc3)c2)C1 | active
C=CC(=O)NCOCC(C)C | inactive
NCC1CCCC(CN)C1 (stereo not drawn) | inactive
C=CC(C)=CCC=C(C)C | active
CC#N | inactive

Which result was noted for this molecule in the test: CCCCCCCCCCCC[N+](C)(C)CCCS(=O)(=O)[O-] inactive

Cool, now O=C(Nc1ccc([N+](=O)[O-])cc1)Nc1ccc([N+](=O)[O-])cc1 inactive

Cool, now CC1=CC(O)CC(C)(C)C1 (stereo not drawn) inactive

---

Experiment summary: qHTS assay to test for compound auto fluorescence at 590 nm (red) in HepG2 cells (AID 720674); further: on the % scale 0 is the no-effect control and ±100 the full control effect
Measurement context: HepG2 autofluorescence, red 540/590 nm, 1 h; series mostly up to 91.3 µM
The source made the active and inactive calls. Calls follow the shape of the dose curve; as a rule, active = well fitted curve in the direction sought with a large enough effect in the repeat runs; inconclusive = weak or mixed curves; inactive = flat fitted curve, though single readings scatter.
Measure name: fluorescence, relative to Rose Bengal

Some entries whose results are on file:
Molecule | fluorescence, relative to Rose Bengal
CCOC(=O)/C=C/C(=O)O | inactive
C[N+](C)(C)CCOC(N)=O | inactive
O=C1OCCN1/N=C/c1ccc([N+](=O)[O-])o1 | inactive
CCCCC/C(=C\c1ccccc1)CO | inactive
CCCCCCCC/C=C\CCCCCCCC(=O)OC | inactive

Query: fluorescence, relative to Rose Bengal; subject: C=CCCCCCCCCCCCCCCCC 0.0868% [at 3.72 µM] (inactive)

Cool, now CCC(C)(C)C1CCC(O)CC1 (stereo not given) inactive

Cool, now CCCCCCCCCCCC(=O)[O][Sn]([CH2]CCC)([CH2]CCC)[O]C(=O)CCCCCCCCCCC inactive

Cool, now CCCCN(CCCC)CCCOC(=O)c1ccc(N)cc1 -0.556% [at 18.6 µM] (inactive)

Cool, now [O]=[Bi] -0.152% [at 3.72 µM] (inactive)
